The reported numbers originate from patent US20050272659A1.

biological target: γ-secretase (detergent-solubilized membranes from HeLa cells); assay: cell-based or functional assay
Non-standard residues stand in square brackets, D forms with d. *: point of attachment. Thr(OBz) = threonine with O-benzyl ester (OBz); Boc = CC(C)(C)OC(=O)*; Aib = CC(C)(N)C(=O)O
experimentalReadout: Cell-free Assay IC50 (concentration required for 50% inhibition of Aβ40 production) (µM)

binder: Boc-GL[Aib]VG[Aib]VVI[Aib][Thr(OBz)]V[Aib]VI[Aib]-OMe
obsValue: 11
